B1: library; numbered along this chain (parent)
chain: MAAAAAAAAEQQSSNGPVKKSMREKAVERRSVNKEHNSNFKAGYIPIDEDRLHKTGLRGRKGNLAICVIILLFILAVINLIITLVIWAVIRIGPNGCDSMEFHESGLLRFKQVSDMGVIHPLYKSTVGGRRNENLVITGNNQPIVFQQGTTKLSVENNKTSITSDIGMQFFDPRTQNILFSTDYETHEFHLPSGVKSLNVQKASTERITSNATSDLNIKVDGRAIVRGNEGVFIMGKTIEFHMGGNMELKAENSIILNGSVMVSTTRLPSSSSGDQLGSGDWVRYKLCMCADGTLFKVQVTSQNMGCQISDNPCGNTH

variants of: B1; test: SGCB cell-surface expression functional score (HA stain, bin4 vs bin1, normalised to synonymous) (log10 ratio); higher = more cell-surface SGCB (functional)
Recorded Metric: SGCB cell-surface expression functional score (log10)

>  <Mutant>
S105Q

>  <Test Result>
-0.11

$$$$
>  <Mutant>
C67S

>  <Test Result>
0.04

$$$$
>  <Mutant>
I225F

>  <Test Result>
0.71

$$$$
>  <Mutant>
A5R

>  <Test Result>
-0.2

$$$$
>  <Mutant>
V155P

>  <Test Result>
-1.4

$$$$
>  <Mutant>
K20V

>  <Test Result>
0.32

$$$$
>  <Mutant>
D311W

>  <Test Result>
0.22

$$$$
>  <Mutant>
K250I

>  <Test Result>
1

$$$$
>  <Mutant>
R227L

>  <Test Result>
0.68

$$$$
>  <Mutant>
G228P

>  <Test Result>
-1.47

$$$$
>  <Mutant>
S197K

>  <Test Result>
-0.3

$$$$
>  <Mutant>
K196W

>  <Test Result>
-0.69

$$$$
>  <Mutant>
L71S

>  <Test Result>
0.06

$$$$
>  <Mutant>
K152E

>  <Test Result>
-0.38

$$$$
>  <Mutant>
N33W

>  <Test Result>
-0.14

$$$$
>  <Mutant>
P121D

>  <Test Result>
-0.76

$$$$
>  <Mutant>
T138S

>  <Test Result>
0.4

$$$$
>  <Mutant>
I162K

>  <Test Result>
-1.11

$$$$
>  <Mutant>
S197P

>  <Test Result>
-2.03

$$$$
>  <Mutant>
A3I

>  <Test Result>
-0.02

$$$$
>  <Mutant>
E252S

>  <Test Result>
0.51

$$$$
>  <Mutant>
G315W

>  <Test Result>
0.43

$$$$
